- assay system: USP28 (His-tagged USP28-FL-mammalian) (Homo sapiens, UniProt Q96RU2)
- Construct: Expression of USP28 (1-1077)-TEV-6*His (pTT5 vector); made in house; host or cells: Expi293f cells (pTT5 vector)
- experimental protocol: Ubiquitin-Rhodamine 110 Assay for USP28 Activity, Example A-1(a)
- Assay type: biochemical
- condition notes: Ubiquitin-Rhodamine 110 assay, format Example A-1(a); read-out: USP28 A-1(a) IC50 range
measure name: IC50

Answered examples (4):
molecule	assay system	IC50
Cc1ccc2c(N)c(C(=O)N[C@H]3COc4c(F)c(N5CC6CCC(C5)N6)cc(F)c4C3)sc2n1 (single isomer, unassigned)	USP28 (His-tagged USP28-FL-mammalian) (Homo sapiens, UniProt Q96RU2)	1 to 50 nM
Cc1ccc2c(N)c(C(=O)N[C@@H]3CCc4c(F)c(N5CC6CNCC(C5)O6)cc(F)c4C3)sc2n1 (single isomer, unassigned)	USP28 (His-tagged USP28-FL-mammalian) (Homo sapiens, UniProt Q96RU2)	1 to 50 nM
CO[C@H]1CN(c2ccc3c(n2)CC[C@H](NC(=O)c2sc4nc(C)ccc4c2N)C3)C[C@@H]1N	USP28 (His-tagged USP28-FL-mammalian) (Homo sapiens, UniProt Q96RU2)	50 to 200 nM
Cc1ccc2c(N)c(C(=O)N[C@H]3COc4cc(N5CCNCC5)c(Cl)cc4C3)sc2n1	USP28 (His-tagged USP28-FL-mammalian) (Homo sapiens, UniProt Q96RU2)	> 2000 nM

input: Give a short answer stating reported IC50 for Cc1nc2sc(C(=O)N[C@@H]3CCc4c(C#N)c(N5CC6CCC(C5)N6)cc(F)c4C3)c(N)c2s1 (single isomer, unassigned) .
output: 200 to 2000 nM

input: Report IC50 for Cc1cnc2c(N)c(C(=O)N[C@@H]3CCc4c(ccc(N5CC6CCC(C5)N6)c4C#N)C3)sc2n1 (single isomer, unassigned)
output: 1 to 50 nM

input: State its IC50: Cc1ccc2c(N)c(C(=O)N[C@H]3COc4c(cnc(N5CC6CCC(C5)N6)c4F)C3)sc2n1
output: 1 to 50 nM

input: Please look at this molecule and report its IC50: CO[C@H]1CN(c2ccc3c(n2)CC[C@@H](NC(=O)c2sc4nc(C)cnc4c2N)C3)C[C@@H]1N (single isomer, unassigned)
output: > 2000 nM

input: Quick one: give measured IC50 for Cc1ccc2c(N)c(C(=O)N[C@@H]3CCc4cc(N5CCNCC5)cnc4C3)sc2n1 (single isomer, unassigned)
output: > 2000 nM

----------
- assay system: USP28 (His-tagged USP28-FL-mammalian) (Homo sapiens, UniProt Q96RU2)
- Construct: Expression of USP28 (1-1077)-TEV-6*His (pTT5 vector); made in house; host or cells: Expi293f cells (pTT5 vector)
- Sequence (Q96RU2 1-1077): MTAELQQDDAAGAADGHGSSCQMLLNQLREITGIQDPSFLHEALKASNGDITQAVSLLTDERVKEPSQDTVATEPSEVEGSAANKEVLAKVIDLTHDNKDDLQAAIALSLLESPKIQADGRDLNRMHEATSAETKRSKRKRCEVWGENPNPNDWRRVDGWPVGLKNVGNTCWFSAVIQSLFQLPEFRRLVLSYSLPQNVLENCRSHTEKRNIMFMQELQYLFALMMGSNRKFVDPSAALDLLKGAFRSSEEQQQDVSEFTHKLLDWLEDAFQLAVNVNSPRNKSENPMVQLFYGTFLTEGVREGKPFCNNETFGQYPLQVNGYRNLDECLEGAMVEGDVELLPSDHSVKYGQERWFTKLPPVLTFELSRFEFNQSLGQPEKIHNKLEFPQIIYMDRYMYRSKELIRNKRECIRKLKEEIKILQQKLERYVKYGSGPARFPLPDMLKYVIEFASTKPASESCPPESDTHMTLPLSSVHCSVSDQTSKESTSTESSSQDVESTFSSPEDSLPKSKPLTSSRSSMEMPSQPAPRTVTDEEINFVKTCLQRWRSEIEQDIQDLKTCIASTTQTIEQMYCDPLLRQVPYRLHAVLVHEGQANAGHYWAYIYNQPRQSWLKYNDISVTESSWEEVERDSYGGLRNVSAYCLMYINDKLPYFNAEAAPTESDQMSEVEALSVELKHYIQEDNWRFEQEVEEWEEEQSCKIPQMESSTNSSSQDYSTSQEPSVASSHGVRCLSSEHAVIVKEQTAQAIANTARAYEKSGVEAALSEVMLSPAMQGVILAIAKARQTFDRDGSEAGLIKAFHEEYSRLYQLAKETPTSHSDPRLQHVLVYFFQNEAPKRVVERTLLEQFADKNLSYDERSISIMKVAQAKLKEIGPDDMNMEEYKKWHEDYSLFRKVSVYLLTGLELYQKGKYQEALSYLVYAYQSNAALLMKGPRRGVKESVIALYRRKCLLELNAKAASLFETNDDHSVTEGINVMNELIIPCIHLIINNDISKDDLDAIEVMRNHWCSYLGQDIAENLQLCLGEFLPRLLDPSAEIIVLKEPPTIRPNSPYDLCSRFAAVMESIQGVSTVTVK
- experimental protocol: Ubiquitin-Rhodamine 110 Assay for USP28 Activity, Example A-1(a)
- Assay type: biochemical
- condition notes: Ub-Rh110 assay, Example A-1(a); read-out: USP28 A-1(a) IC50 range
Each record here notes measured IC50.

molecule	IC50
Cc1ccc2c(N)c(C(=O)N[C@H]3COc4cc(N5CCC[C@](N)(C(F)(F)F)C5)ccc4C3)sc2n1 (single isomer, unassigned) [Example 3-4]	1 to 50 nM
Cc1cc(C)c2c(N)c(C(=O)N[C@H]3COc4cc(N5CC6CC(C5)N6)ccc4C3)sc2n1 [Example 2-18]	1 to 50 nM
Cc1nc2sc(C(=O)N[C@H]3COc4cc(N5CC6CC(C5)N6)ccc4C3)c(N)c2cc1F [Example 2-15]	1 to 50 nM
Nc1c(C(=O)N[C@H]2COc3cc(N4CC5CC(C4)N5)ccc3C2)sc2nc(F)ccc12 [Example 2-14]	1 to 50 nM
Cc1cc(C)c2c(N)c(C(=O)N[C@H]3COc4cc(N5CCNCC5)c(C#N)c(F)c4C3)sc2n1 [Example 2-32]	1 to 50 nM
CCn1ccc2cc(C(=O)N[C@H]3COc4cc(N5CC6CCCC(C5)N6)ccc4C3)nnc21 [Example 2-29]	50 to 200 nM

input: Determine from records and report IC50 for Cc1nc2sc(C(=O)N[C@@H]3COc4cc(N5CCNCC5)ccc4C3)c(N)c2s1 [Example 1-26]
output: 200 to 2000 nM

input: Specify IC50 for Cc1cnc2c(N)c(C(=O)N[C@H]3COc4cc(N5CC6CNCC(C5)O6)ccc4C3)sc2n1 [Example 2-13] and stop.
output: 1 to 50 nM

input: Quick one: give measured IC50 for Cc1ccc2c(N)c(C(=O)N[C@H]3COc4cc(N5CCNCC5)c(OC(F)(F)F)cc4C3)sc2n1 (single isomer, unassigned) [Example 1-31]
output: 200 to 2000 nM

input: Provide only the value of recorded IC50 for Cc1ccc2c(N)c(C(=O)N[C@H]3COc4cc(N5CCNC[C@H]5C)ccc4C3)sc2n1 [Example 2-5]
output: 1 to 50 nM

input: Report IC50 for Cc1cc(C(F)(F)F)c2c(N)c(C(=O)N[C@H]3COc4cc(N5CC6CNCC(C5)C6(F)F)ccc4C3)sc2n1 [Example 2-22]
output: 1 to 50 nM

input: Answer with the recorded IC50 of Cc1ccc2c(N)c(C(=O)N[C@@H]3COc4cc(N5CCN[C@@H](C)[C@@H]5C)ccc4C3)sc2n1 (single isomer, unassigned) [Example 1-14] only.
output: 50 to 200 nM

----------
pIC50 values, listed per item
- assay system: USP28 (His-tagged USP28-FL-mammalian) (Homo sapiens, UniProt Q96RU2)
- Construct: Expression of USP28 (1-1077)-TEV-6*His (pTT5 vector); made in house; host or cells: Expi293f cells (pTT5 vector)
- experimental protocol: Ubiquitin-Rhodamine 110 Assay for USP28 Activity, Example A-1(a)
- Assay type: biochemical
- condition notes: Ubiquitin-Rhodamine 110 assay, Example A-1(a); read-out: USP28 A-1(a) IC50 range
pIC50: −log10 of the molar value.

# count of solved cases: 4
compound	pIC50
CO[C@@H]1CN(c2cc3c(cc2F)C[C@@H](NC(=O)c2sc4nc(C)ccc4c2N)CO3)C[C@H]1N [Example 93]	6.70 to 7.30
CCn1ccc2cc(C(=O)N[C@H]3CCc4nc(N5C[C@@H](N)[C@H](C(F)(F)F)C5)ccc4C3)cnc21 [Example 422]	5.70 to 6.70
O=C(N[C@H]1COc2cc(N3CCNCC3)ccc2C1)c1ccc(NCc2cccnc2)nc1 [Example 468]	5.70 to 6.70
Cc1ccc2c(N)c(C(=O)N[C@H]3COc4cc(N5C[C@@H](N)C6(COC6)C5)ccc4C3)sc2n1 [Example 259]	7.30 to 9.00

Next compound, pIC50 to be filled in.
input: Tell me its pIC50 given N#Cc1c(N2CC3CCC(C2)N3)cc(F)c2c1CC[C@@H](NC(=O)c1cnc3c(c1)[C@@H]1C[C@@H]1CN3)C2 [Example 197] as the entry.
output: < 5.70
